Cited source: patent US11384371B2

Test system: P450aluC09
Assay: Cell-free hydroxylase activity of lyophilised recombinant P450aluC09-ferredoxinaluF03-ferredoxin reductaseSCF15A, conversion by UPLC-MS
Assay type: biochemical, Amycolatopsis lurida
Settings: 22° C., 16-20 hours, 0.1 mg/ml substrate
Experimental: Lyophilised material of recombinant P450aluC09, ferredoxinaluF03 and ferredoxin reductaseSCF15A was made as described in examples 5 and 6 and suspended in water to a final concentration of 2.9 μM of P450aluC09 and 919 UN of ferredoxin reductaseSCF15A. […] After 16-20 hours, reactions were extracted with an equal volume of acetonitrile, centrifuged to remove precipitated proteins and conversion assessed by UPLC-MS analysis. […]
Below, each entry is listed alongside its reported hydroxylase activity (conversion to hydroxylated product).
Just the number please, in %, no unit attached.

Below are worked cases with known answers.
CC(C)[C@H](NC(=O)N(C)Cc1csc(C(C)(C)O)n1)C(=O)N[C@@H](Cc1ccccc1)C[C@H](O)[C@H](Cc1ccccc1)NC(=O)OCc1cncs1 = 36
O=C(O)Cc1ccccc1Nc1c(Cl)cc(O)cc1Cl [4′-HO-Diclofenac, 4′-hydroxydiclofenac] = 16
O=C(O)Cc1cc(O)ccc1Nc1c(Cl)cccc1Cl [5-HO-Diclofenac, 5-hydroxydiclofenac] = 14

Attention now shifts to the item below.
Query :: Please tell me: hydroxylase activity (conversion to hydroxylated product) of COc1ccccc1Oc1c(NS(=O)(=O)c2ccc(C(C)(C)CO)cc2)nc(-c2ncccn2)nc1OCCO , system P450aluC09?
Result :: 64

---

System: P450aluC09
Assay: Cell-free hydroxylase activity of lyophilised recombinant P450aluC09-ferredoxinaluF03-ferredoxin reductaseSCF15A, conversion by UPLC-MS
Assay type: biochemical, Amycolatopsis lurida
Settings: 27° C. (standard condition), 16-20 hours, 0.1 mg/ml substrate
Recorded hydroxylase activity (conversion to hydroxylated product) for the following compounds
Give just the number in %; leave the unit off.

Guide cases for hydroxylase activity (conversion to hydroxylated product), answers given:
O=C(O)Cc1ccccc1Nc1c(Cl)cc(O)cc1Cl [4′-HO-Diclofenac, 4′-hydroxydiclofenac] = 21
O=C(O)Cc1cc(O)ccc1Nc1c(Cl)cccc1Cl [5-HO-Diclofenac, 5-hydroxydiclofenac] = 12
CC(C)[C@H](NC(=O)N(C)Cc1csc(C(C)(C)O)n1)C(=O)N[C@@H](Cc1ccccc1)C[C@H](O)[C@H](Cc1ccccc1)NC(=O)OCc1cncs1 [ε-HO-Ritonavir] = 34

Consider the record given below.
Query :: Entry COc1ccccc1Oc1c(NS(=O)(=O)c2ccc(C(C)(C)CO)cc2)nc(-c2ncccn2)nc1OCCO [HO-Bosentan] has what hydroxylase activity (conversion to hydroxylated product)?
Result :: 86
